Test system: NA strain
assay: Checkerboard synergy testing of inhibitors with ciprofloxacin, NA strain
Type: cell-based, B. subtilis
assay.setup: combination with ciprofloxacin
measurement.kind: FIC index NA

- compound: "COc1ccccc1NC(=O)Nc1ccc2ccccc2c1 [INF 271]"
  test.value: 0.12
- compound: "O=[N+]([O-])c1ccc2[nH]c(-c3ccccc3)cc2c1 [INF 55]"
  test.value: 0.25
- compound: "O=c1nc(SCc2ccccc2)[nH]c2c1[C@H](c1ccccc1)c1ccccc1O2 [INF 392]"
  test.value: 0.28
- compound: "CC1(C)CC(=O)C2=C(C1)c1c(ccc3ccccc13)NC2c1cc(Br)ccc1O (centres unmarked) [INF 277]"
  test.value: 0.15
- compound: "O=C(/C=C/c1ccccc1)Nc1cccc(/C=C/C(=O)c2ccccc2)c1 [INF 240]"
  test.value: 0.12

###

System: HeLa cell line
assay: Toxicity on HeLa cell line, Cell Titer 96 AQueous MTS-based assay
Design: species or system human
assay.setup: HeLa IC50 / S. aureus effectivity IC50
Binary call on Selectivity Index (Toxicity HeLa/Effectivity) with cut-off 10: strictly below means Satisfied, and equality or higher means Not satisfied.

- compound: "O=[N+]([O-])c1ccc2[nH]c(-c3ccccc3)cc2c1"
  measurement.target: "HeLa cell line"
  class: "Not satisfied"
- compound: "O=C(/C=C/c1ccccc1)Nc1cccc(/C=C/C(=O)c2ccccc2)c1"
  measurement.target: "HeLa cell line"
  class: "Satisfied"
- compound: "CC1(C)CC(=O)C2=C(C1)c1c(ccc3ccccc13)NC2c1cc(Br)ccc1O (centres unmarked)"
  measurement.target: "HeLa cell line"
  class: "Satisfied"
- compound: "COc1ccccc1NC(=O)Nc1ccc2ccccc2c1"
  measurement.target: "HeLa cell line"
  class: "Not satisfied"
- compound: "O=c1nc(SCc2ccccc2)[nH]c2c1[C@H](c1ccccc1)c1ccccc1O2"
  measurement.target: "HeLa cell line"
  class: "Not satisfied"

###

The following compounds are listed with their measured IC50 values.
Tested on: S. aureus (SA1199B)
assay: Minimal inhibitor concentration decreasing the ciprofloxacin MIC two fold, S. aureus SA1199B
Format: cell-based
assay.setup: Staphylococcus aureus, read-out: Effectivity IC50* S. Aureus

- compound: "O=[N+]([O-])c1ccc2[nH]c(-c3ccccc3)cc2c1"
  units.text: "µg/mL"
  IC50: 1.5
- compound: "COc1ccccc1NC(=O)Nc1ccc2ccccc2c1"
  units.text: "µg/mL"
  IC50: 1.5
- compound: "CC1(C)CC(=O)C2=C(C1)c1c(ccc3ccccc13)NC2c1cc(Br)ccc1O (stereo not drawn)"
  units.text: "µg/mL"
  IC50: 0.8
- compound: "O=c1nc(SCc2ccccc2)[nH]c2c1[C@H](c1ccccc1)c1ccccc1O2"
  units.text: "µg/mL"
  IC50: 0.1
- compound: "COC(=O)[C@H]1[C@H]2C[C@@H]3c4[nH]c5cc(OC)ccc5c4CCN3C[C@H]2C[C@@H](OC(=O)c2cc(OC)c(OC)c(OC)c2)[C@@H]1OC"
  units.text: "µg/mL"
  IC50: 6.25
- compound: "O=C(/C=C/c1ccccc1)Nc1cccc(/C=C/C(=O)c2ccccc2)c1"
  units.text: "µg/mL"
  IC50: 0.8
